Target: Recombinant human Bcl-xL with a 25 amino acid truncation of its C-terminus (human) (UniProt Q07817)
Sequence (Q07817 1-208): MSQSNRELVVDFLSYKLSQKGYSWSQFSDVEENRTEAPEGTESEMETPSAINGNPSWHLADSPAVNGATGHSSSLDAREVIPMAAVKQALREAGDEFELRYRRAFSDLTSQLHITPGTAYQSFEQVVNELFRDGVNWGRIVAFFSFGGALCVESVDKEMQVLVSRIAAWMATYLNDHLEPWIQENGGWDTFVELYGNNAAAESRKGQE
Assay: competition phage ELISA
Quick list: IC50 per entry.

{"BINDER": "QEDIIRNIARHLAQVGDAMDRSIPPG [Bid BH3 S18A, phage-displayed]", "IC50 (nM)": 16}
{"BINDER": "NLWAAQAYGRELRRMSDEFVDSFKKG [Bad BH3 R7A, phage-displayed]", "IC50 (nM)": 4}
{"BINDER": "PSSTMGQVGRQLAIIGDDINRAYDSE [Bak BH3 R22A, phage-displayed]", "IC50 (nM)": 37}
{"BINDER": "PSATMGQVGRQLAIIGDDINRRYDSE [Bak BH3 S3A, phage-displayed]", "IC50 (nM)": 25}
{"BINDER": "QEDIIRNIARHLAQVGDSMDRAIPPG [Bid BH3 S22A, phage-displayed]", "IC50 (nM)": 13}
{"BINDER": "PSSTMGQVGRQLAIIGDDINRRYDSE [Bak BH3 wild type, phage-displayed]", "IC50 (nM)": 49}
{"BINDER": "NLWAAQRYGRELRRMSDEFVDSFKAG [Bad BH3 K25A, phage-displayed]", "IC50 (nM)": 4}
{"BINDER": "NLWAEQRYGRELRRMSDEFVDSFKKG [Bad BH3 A5E, phage-displayed]", "IC50 (nM)": 12}
{"BINDER": "NLWAAQRYGRELRRMSDEFADSFKKG [Bad BH3 V20A, phage-displayed]", "IC50 (nM)": 3}
{"BINDER": "NLAAAQRYGRELRRMSDEFVDSFKKG [Bad BH3 W3A, phage-displayed]", "IC50 (nM)": 3}
{"BINDER": "PSSTMGQVGRQLAIIGDDINRRYDAE [Bak BH3 S25A, phage-displayed]", "IC50 (nM)": 31}
{"BINDER": "NLWAAQRYGRELRRMSDEFVDSFKKG [Bad BH3 wild type, phage-displayed]", "IC50 (nM)": 2}
{"BINDER": "QEDAIRNIARHLAQVGDSMDRSIPPG [Bid BH3 I4A, phage-displayed]", "IC50 (nM)": 31}
{"BINDER": "ASSTMGQVGRQLAIIGDDINRRYDSE [Bak BH3 P1A, phage-displayed]", "IC50 (nM)": 31}

The origin of these recorded values is patent US20090048164A1.
